All figures here come from patent EP4656642A1.

Entries and their Degradation rate (%) of ERα in MCF-7 cells values follow.
Target: ERα (Homo sapiens, UniProt P03372)
Test: Degradation of ERα in MCF-7 cells (immunoblotting, 4 h)
Type: cell-based
Details: 1nM compound
// unit must come after the numeric part

Consider the molecule shown here: O=C1CCC(N2Cc3c(ccc4c3OCC43CCN(CC(=O)NC4CC5(CCN(c6ccc([C@@H]7c8ccc(O)cc8CC[C@@H]7c7ccccc7)cc6)CC5)C4)CC3)C2=O)C(=O)N1 (stereo partly drawn) What is its recorded Degradation rate (%) of ERα in MCF-7 cells?
53%

Consider the molecule shown here: O=C1CCC(N2Cc3cc4c(cc3C2=O)OCC42CCN(CC3CCN(c4ccc([C@@H]5c6ccc(O)cc6CC[C@@H]5c5ccccc5)cc4)CC3)CC2)C(=O)N1 (stereo partly drawn) What is its recorded Degradation rate (%) of ERα in MCF-7 cells?
9%

Consider the molecule shown here: O=C1CCC(N2Cc3cc4c(cc3C2=O)CCC2(CN(C(=O)C3CCN(c5ccc([C@@H]6c7ccc(O)cc7CC[C@@H]6c6ccccc6)cc5)CC3)C2)O4)C(=O)N1 (stereo partly drawn) What is its recorded Degradation rate (%) of ERα in MCF-7 cells?
11%

Consider the molecule shown here: N#CC1(CN2CCC3(CC2)COc2c3ccc3c2CN(C2CCC(=O)NC2=O)C3=O)CCN(CC2CCN(c3ccc([C@@H]4c5ccc(O)cc5CC[C@@H]4c4ccccc4)cc3)CC2)CC1 (stereo partly drawn) What is its recorded Degradation rate (%) of ERα in MCF-7 cells?
2%

Consider the molecule shown here: O=C1CCC(N2Cc3c(ccc4c3OCC43CCN(C4CC5CCC(C4)N5C(=O)C4CCN(c5ccc([C@@H]6c7ccc(O)cc7CC[C@@H]6c6ccccc6)cc5)CC4)CC3)C2=O)C(=O)N1 (stereo partly drawn) What is its recorded Degradation rate (%) of ERα in MCF-7 cells?
45%

Consider the molecule shown here: O=C1CCC(N2Cc3c(ccc4c3OCC43CCN(C4CCN(C(=O)C5CCN(c6ccc([C@@H]7c8ccc(O)cc8CC[C@@H]7c7ccccc7)cc6)CC5)CC4)CC3)C2=O)C(=O)N1 (stereo partly drawn) What is its recorded Degradation rate (%) of ERα in MCF-7 cells?
64%

Consider the molecule shown here: O=C1CCC(N2Cc3c(ccc4c3OCC43CCN(C(=O)CC4CCN(c5ccc([C@@H]6c7ccc(O)cc7CC[C@@H]6c6ccccc6)cc5)CC4)CC3)C2=O)C(=O)N1 (stereo partly drawn) [A124] What is its recorded Degradation rate (%) of ERα in MCF-7 cells?
18%

Consider the molecule shown here: O=C1CCC(N2Cc3c(ccc4c3OCC43CCN(CC(=O)N4CC[C@]5(CCN(c6ccc([C@@H]7c8ccc(O)cc8CC[C@@H]7c7ccccc7)cc6)C5)C4)CC3)C2=O)C(=O)N1 (stereo partly drawn) What is its recorded Degradation rate (%) of ERα in MCF-7 cells?
44%

Consider the molecule shown here: O=C1CCC(N2Cc3c(ccc4c3OCC43CCN(CC(=O)N4CCC(Oc5ccc([C@@H]6c7ccc(O)cc7CC[C@@H]6c6ccccc6)cc5)CC4)CC3)C2=O)C(=O)N1 (stereo partly drawn) What is its recorded Degradation rate (%) of ERα in MCF-7 cells?
40%

Consider the molecule shown here: O=C1CCC(N2Cc3c(ccc4c3OCC43CCN(C(=O)C4CCC(CN5CCN(c6ccc(C7c8ccc(O)cc8CCC7c7ccccc7)cc6)CC5)CC4)CC3)C2=O)C(=O)N1 (stereo not drawn) [G16] What is its recorded Degradation rate (%) of ERα in MCF-7 cells?
54%

Consider the molecule shown here: O=C1CCC(N2Cc3c(ccc4c3OCC43CCN(C4CCN(C5CC6(CCN(c7ccc([C@@H]8c9ccc(O)cc9CC[C@@H]8c8ccccc8)cc7)CC6)C5)[C@@H](C(=O)N5CCC(F)(F)CC5)C4)CC3)C2=O)C(=O)N1 (stereo partly drawn) What is its recorded Degradation rate (%) of ERα in MCF-7 cells?
35%

Consider the molecule shown here: C[C@@H]1Cc2c([nH]c3ccccc23)[C@@H](c2c(F)cc(N3CCN(C[C@H]4CC[C@H](C(=O)N5CCC6(CC5)COc5c6ccc6c5CN(C5CCC(=O)NC5=O)C6=O)CC4)CC3)cc2F)N1CC(F)F (stereo partly drawn) What is its recorded Degradation rate (%) of ERα in MCF-7 cells?
46%

Consider the molecule shown here: O=C1CCC(N2Cc3cc4c(cc3C2=O)OC2(CC4)CN(C3CCC(N4CCN(c5ccc([C@@H]6c7ccc(O)cc7CC[C@@H]6c6ccccc6)cc5)CC4)CC3)C2)C(=O)N1 (stereo partly drawn) What is its recorded Degradation rate (%) of ERα in MCF-7 cells?
-36%

Consider the molecule shown here: O=C1CCC(N2Cc3c(ccc4c3OCC43CCN(C(=O)CN4CC5(CCN(c6ccc([C@@H]7c8ccc(O)cc8CC[C@@H]7c7ccccc7)cc6)CC5)C4)CC3)C2=O)C(=O)N1 (stereo partly drawn) What is its recorded Degradation rate (%) of ERα in MCF-7 cells?
44%

Consider the molecule shown here: O=C1CCC(N2Cc3c(ccc4c3OCC43CCN(S(=O)(=O)[C@H]4CC[C@H](C(=O)N5CCN(c6ccc([C@@H]7c8ccc(O)cc8CC[C@@H]7c7ccccc7)cc6)CC5)CC4)CC3)C2=O)C(=O)N1 (stereo partly drawn) What is its recorded Degradation rate (%) of ERα in MCF-7 cells?
37%

Consider the molecule shown here: CN(CC(=O)N1CCC2(CC1)COc1c2ccc2c1CN(C1CCC(=O)NC1=O)C2=O)C1CCC2(CC1)CCN(c1ccc([C@@H]3c4ccc(O)cc4CC[C@@H]3c3ccccc3)cc1)CC2 (stereo partly drawn) What is its recorded Degradation rate (%) of ERα in MCF-7 cells?
46%

Consider the molecule shown here: O=C1CCC(N2Cc3c(ccc4c3OCC43CCN(C(=O)C4CCN(c5ccc([C@@H]6c7ccc(O)cc7CC[C@@H]6c6ccccc6)cc5)CC4)CC3)C2=O)C(=O)N1 (stereo partly drawn) What is its recorded Degradation rate (%) of ERα in MCF-7 cells?
-22%

* * *

Entries and their Degradation rate (%) of ERα in T-47D cells values follow.
Molecular target: ERα (Homo sapiens)
Sequence (P03372 1-595): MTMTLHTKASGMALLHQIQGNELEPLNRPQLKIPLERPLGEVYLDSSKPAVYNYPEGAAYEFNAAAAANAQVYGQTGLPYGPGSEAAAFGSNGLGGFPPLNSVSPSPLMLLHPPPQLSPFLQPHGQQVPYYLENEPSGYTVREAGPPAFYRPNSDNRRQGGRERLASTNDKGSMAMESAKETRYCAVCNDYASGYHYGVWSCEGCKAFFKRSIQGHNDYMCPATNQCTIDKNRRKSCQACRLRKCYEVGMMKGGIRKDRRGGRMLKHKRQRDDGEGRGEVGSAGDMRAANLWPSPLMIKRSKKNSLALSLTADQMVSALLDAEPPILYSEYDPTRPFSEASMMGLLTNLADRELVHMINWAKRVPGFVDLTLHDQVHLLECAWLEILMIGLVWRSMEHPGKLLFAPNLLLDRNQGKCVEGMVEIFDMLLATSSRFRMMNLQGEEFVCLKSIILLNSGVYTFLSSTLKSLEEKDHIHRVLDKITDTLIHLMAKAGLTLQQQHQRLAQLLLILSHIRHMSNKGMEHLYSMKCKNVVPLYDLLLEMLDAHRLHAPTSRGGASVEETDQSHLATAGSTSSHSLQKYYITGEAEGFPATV
Assay: Degradation of ERα in T-47D cells (immunoblotting, 4 h)
Format: cell-based
Set-up: host or cells: T-47D
Conditions: 10nM compound
Express your answer in %, writing the number without its unit.

C[C@@H]1Cc2c(ccc3[nH]ncc23)C(c2c(F)cc(N3CC4(CCC(N5CCC6(CC5)COc5c6ccc6c5CN(C5CCC(=O)NC5=O)C6=O)CC4)C3)cc2F)N1CC(F)F (stereo partly drawn) [G21]: 63

Consider the compound shown here: O=C1CCC(N2Cc3cc4c(cc3C2=O)OC2(CC4)CCN(C3CCC4(CC3)CCN(c3ccc(C5c6ccc(O)cc6CCC5c5ccccc5)cc3)CC4)CC2)C(=O)N1 (stereo not drawn) [A22] What is its recorded Degradation rate (%) of ERα in T-47D cells?
19

Consider the compound shown here: O=C1CCC(N2Cc3c(ccc4c3OCC43CCN(C(=O)C4CCC(N5CCC(C#Cc6ccc([C@@H]7c8ccc(O)cc8CC[C@@H]7c7ccccc7)cc6)CC5)CC4)CC3)C2=O)C(=O)N1 (stereo partly drawn) [A101] What is its recorded Degradation rate (%) of ERα in T-47D cells?
45

* * *

Target: ERα (Homo sapiens, UniProt P03372)
Sequence (P03372 1-595): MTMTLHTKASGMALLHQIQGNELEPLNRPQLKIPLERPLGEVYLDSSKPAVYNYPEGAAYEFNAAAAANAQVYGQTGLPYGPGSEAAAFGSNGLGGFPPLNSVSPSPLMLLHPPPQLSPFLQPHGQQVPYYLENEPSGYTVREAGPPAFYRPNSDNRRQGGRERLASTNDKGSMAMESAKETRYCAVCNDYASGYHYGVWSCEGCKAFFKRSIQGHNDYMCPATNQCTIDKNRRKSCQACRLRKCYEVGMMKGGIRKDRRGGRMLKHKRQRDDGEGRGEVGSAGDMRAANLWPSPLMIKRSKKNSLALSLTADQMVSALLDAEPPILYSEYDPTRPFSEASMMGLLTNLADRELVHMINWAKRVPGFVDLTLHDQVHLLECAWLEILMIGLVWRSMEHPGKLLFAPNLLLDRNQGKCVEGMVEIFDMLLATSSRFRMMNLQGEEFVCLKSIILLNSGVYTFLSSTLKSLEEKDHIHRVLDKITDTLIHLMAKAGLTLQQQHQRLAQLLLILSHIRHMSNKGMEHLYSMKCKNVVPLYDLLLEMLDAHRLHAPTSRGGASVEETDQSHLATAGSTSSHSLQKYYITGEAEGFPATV
Assay: Degradation of ERα in T-47D cells (immunoblotting, 4 h)
Type: cell-based
Set-up: host or cells: T-47D
Conditions: 10nM compound
Is Degradation rate (%) of ERα in T-47D cells at least 50%? Then t. If not, f.

Consider the worked cases shown below.
O=C1CCC(N2Cc3c(ccc4c3OCC43CCN(C4CCN(CC5CCN(c6ccc([C@@H]7c8ccc(O)cc8CC[C@@H]7c7ccccc7)cc6)CC5)CC4F)CC3)C2=O)C(=O)N1 (stereo partly drawn): t
O=C1CCC(N2C(=O)c3ccc4c(c3C2=O)OCC42CCN(C3CC4(C3)CN(c3ccc([C@@H]5c6ccc(O)cc6CC[C@@H]5c5ccccc5)cc3)C4)CC2)C(=O)N1 (stereo partly drawn): f
O=C1CCC(N2Cc3cc4c(cc3C2=O)CCC2(CN(C3CCN(C5CCN(c6ccc([C@@H]7c8ccc(O)cc8CC[C@@H]7c7ccccc7)cc6)CC5)CC3)C2)O4)C(=O)N1 (stereo partly drawn): t
C[C@@H]1Cc2c([nH]c3ccccc23)[C@@H](c2c(F)cc(N3CCC4(CCN(CC(=O)N5CCC6(CC5)COc5c6ccc6c5CN(C5CCC(=O)NC5=O)C6=O)C4)CC3)cc2F)N1CC(F)F (stereo partly drawn): t

Check if Degradation rate (%) of ERα in T-47D cells >= 50% (inclusive). Item: O=C1CCC(N2Cc3c(ccc4c3OCC43CCN(C4CCN(C(=O)C5CCN(c6ccc([C@@H]7c8ccc(O)cc8CC[C@@H]7c7ccccc7)cc6)CC5)[C@@H](C(=O)N5CC(F)(F)C5)C4)CC3)C2=O)C(=O)N1 (stereo partly drawn)
t

Check if Degradation rate (%) of ERα in T-47D cells >= 50% (inclusive). Item: C[C@@H]1Cc2c(ccc3[nH]ncc23)C(c2ccc(N3CCC4(CCN(C(=O)CN5CCC6(CC5)COc5c6ccc6c5CN(C5CCC(=O)NC5=O)C6=O)CC4)CC3)cn2)N1CC(F)(F)F (stereo partly drawn)
t

Check if Degradation rate (%) of ERα in T-47D cells >= 50% (inclusive). Item: O=C1CCC(N2Cc3ccc4c(c3C2=O)OCC2(CCN(C3CCC5(CC3)CN(c3ccc([C@@H]6c7ccc(O)cc7CC[C@@H]6c6ccccc6)cc3)C5)CC2)C4)C(=O)N1 (stereo partly drawn)
t

Check if Degradation rate (%) of ERα in T-47D cells >= 50% (inclusive). Item: O=C1CCC(N2C(=O)c3cc4c(cc3C2=O)OC2(CC4)CCN(CC3CCN(c4ccc(C5c6ccc(O)cc6CCC5c5ccccc5)cc4)C3)CC2)C(=O)N1 (stereo not drawn)
f

Check if Degradation rate (%) of ERα in T-47D cells >= 50% (inclusive). Item: O=C1CCC(N2Cc3cc4c(cc3C2=O)OC2(CC4)CN(C3CCC4(CC3)CCN(c3ccc(C5c6ccc(O)cc6CCC5c5ccccc5)cc3)CC4)C2)C(=O)N1 (stereo not drawn)
f
